The values you see were collected from PubChem BioAssay (NCI).

system: HS 578T breast; assay: NCI-60 one-dose screen, 48 h (100 = growth as untreated, 0 = no growth, -100 = all killed); details: 10 µM unless noted
Compounds without any hit were thinned out: in the full panel of roughly 83,000, 20% have a hit.
property_label: growth (%)

compound: COc1cc(OC)cc(C(=O)Nc2sc3c(c2C(N)=O)CCC(=O)C3)c1
result: 23.7
--
compound: N=c1c2cc(-c3ccccc3)oc2ncn1/N=C/c1ccc(Cl)cc1
result: 81.7
--
compound: CCOc1cccc(-c2nc3sccn3c2-c2ccnc(S(C)(=O)=O)n2)c1
result: 102
--
compound: COc1cccc2c1CN(C(=O)c1ccc(O)c(C(=O)N3Cc4ccc(OCCC[P+](c5ccccc5)(c5ccccc5)c5ccccc5)cc4C3)c1)C2
result: 49.5
--
compound: NC(=O)c1c(NC(=O)c2ccccc2C(F)(F)F)sc2c1CCC(=O)C2
result: 32.5
--
compound: COc1cc2c(cc1OC)C(Sc1ccc(F)cc1)c1c(nc(N)c(C#N)c1N)O2 (centres undefined)
result: -4.38
--
compound: CCOC(=O)c1c(Nc2ccccc2)nn2c(-c3cccs3)ccnc12
result: 90.2
--
compound: O=C(CCn1c[n+](CC(=O)c2ccc(-c3ccccc3)cc2)c2ccccc21)Nc1cccc2cccnc12
result: 62.8
--
compound: COc1ccc(NC2=C(Cl)C(=O)c3nc(C)ccc3C2=O)cc1OC
result: 119
--
compound: Nc1nc(Nc2ccccc2SSc2ccccc2Nc2nc(N)nc(-c3cccc(Br)c3)n2)nc(-c2cccc(Br)c2)n1
result: 74.3
--
compound: Cc1cc(C)c(N2C(=O)CC(Nc3ccc(Cl)cc3Cl)C2=O)c(C)c1 (centres undefined)
result: 95.8
--
compound: CCCCCCCn1cc2c(NCCc3ccccc3)ncnc2n1
result: 88.5
--
compound: COc1cc(/C=C2\C(=O)Nc3ccccc32)ccc1OCc1ccc(Cl)cc1
result: 105
--
compound: Cc1ccc(CSc2nc(-c3ccc(Cl)cc3)c(C#N)c(N3CCNCC3)n2)cc1
result: 80.1
--
compound: CCO/C=N/C1=C(C#N)C(c2ccc(Cl)cc2)c2sc3c(CC)cccc3c2O1 (centres undefined)
result: 18.4
--
compound: CCCCCc1ccc(S(=O)(=O)Nc2cccc(-c3csc(NC(=O)CCCCCN4CCN(CCO)CC4)n3)c2)cc1
result: 86.1
--
compound: Nc1nc(-c2cccc([N+](=O)[O-])c2)c(N=Nc2ccc([N+](=O)[O-])cc2Cl)s1
result: -4.26
--
compound: O=C(NNc1nc2cc(F)c(F)cc2n2c(CN3CC4CNCC4C3)ccc12)c1ncccn1 (centres undefined)
result: 71.5
--
compound: COc1cc(/C=C/C(=O)c2ccc(NC(=O)CSc3nnc(-c4ccc(-c5nc6ccc(Cl)cc6[nH]5)cc4)o3)cc2)cc(OC)c1OC
result: 90.9
